ASSAY TARGET: hGHQ141N, P01241
Sequence (P01241 27-217 Q167N): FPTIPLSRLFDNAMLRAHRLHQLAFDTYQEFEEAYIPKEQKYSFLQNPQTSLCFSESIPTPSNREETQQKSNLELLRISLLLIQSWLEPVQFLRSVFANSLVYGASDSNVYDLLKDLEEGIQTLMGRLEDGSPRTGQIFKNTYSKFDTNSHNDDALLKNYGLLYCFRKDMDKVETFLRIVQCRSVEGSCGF
Please go through the items and note down their Activity (RFU/sec/µg), dansyl-cadaverine fluorescence kinetics.
One number for each entry, in RFU/sec/µg.

Consider the worked cases shown below.
mTGase from Streptomyces mobaraensis (protein) DSDDRVTPPAEPLDRMPDPYRPSYGRAETVVNNYIRKWQQVYSHRDGRKQQMTEEQREWLSYGCVGVTWVNSGQYPTNRLAFASFDEDRFKNELKNGRPRSGETRAEFEGRVAKESFDEEKGFQRAREVASVMNRALENAHDESAYLDNLKKELANGNDALRNEDARSPFYSALRNTPSFKERNGGNHDPSRMKAVIYSKHFWSGQDRSSSADKRKYGDPDAFRPAPGTGLVDMSRDRNIPRSPTSPGEGFVNFDYGWFGAQTEADADKTVWTHGNHYHAPNGSLGAMHVYESKFRNWSEGYSDFDRGAYVITFIPKSWNTAPDKVKQGWP; 0.98
Met-mTGase from S. mobaraensis (protein) MDSDDRVTPPAEPLDRMPDPYRPSYGRAETVVNNYIRKWQQVYSHRDGRKQQMTEEQREWLSYGCVGVTWVNSGQYPTNRLAFASFDEDRFKNELKNGRPRSGETRAEFEGRVAKESFDEEKGFQRAREVASVMNRALENAHDESAYLDNLKKELANGNDALRNEDARSPFYSALRNTPSFKERNGGNHDPSRMKAVIYSKHFWSGQDRSSSADKRKYGDPDAFRPAPGTGLVDMSRDRNIPRSPTSPGEGFVNFDYGWFGAQTEADADKTVWTHGNHYHAPNGSLGAMHVYESKFRNWSEGYSDFDRGAYVITFIPKSWNTAPDKVKQGWP; 1.24

Lab note: AlaPro-mTGase from S. ladakanum (protein) APDSDERVTPPAEPLDRMPDPYRPSYGRAETIVNNYIRKWQQVYSHRDGRKQQMTEEQREWLSYGCVGVTWVNSGQYPTNRLAFAFFDEDKYKNELKNGRPRSGETRAEFEGRVAKDSFDEAKGFQRARDVASVMNKALENAHDEGAYLDNLKKELANGNDALRNEDARSPFYSALRNTPSFKDRNGGNHDPSKMKAVIYSKHFWSGQDRSGSSDKRKYGDPEAFRPDRGTGLVDMSRDRNIPRSPTSPGESFVNFDYGWFGAQTEADADKTVWTHGNHYHAPNGSLGAMHVYESKFRNWSDGYSDFDRGAYVVTFVPKSWNTAPDKVKQGWP gave Activity (RFU/sec/µg), dansyl-cadaverine fluorescence kinetics of 1.02
